assay-system: MOR
protocol-description: Radioligand binding assay at μ opioid receptor
test-settings: log IC50 ± error
Non-standard residues stand in square brackets, D forms with d. Residues, ends and D or L forms follow the SMILES beside them. *: point of attachment. NH(3,5-(CF3)2-benzyl) = FC(F)(F)c1cc(CN*)cc(C(F)(F)F)c1; Dmt = Cc1cc(O)cc(C)c1C[C@H](N)C(=O)O; NMeF = CN[C@@H](Cc1ccccc1)C(=O)O
The following molecules are shown together with reported Log[IC50±] (μ) values.
Write no unit; give the number alone.

CC(C)C[C@H](NC(=O)[C@@H]1CCCN1C(=O)[C@@H](CO)NC(=O)[C@H](Cc1ccccc1)NC(=O)CNC(=O)[C@@H](C)NC(=O)[C@@H](N)Cc1ccc(O)cc1)C(=O)N[C@@H](Cc1c[nH]c2ccccc12)C(=O)NCc1cc(C(F)(F)F)cc(C(F)(F)F)c1 | −6.35
CC(C)C[C@H](NC(=O)[C@@H]1CCCN1C(=O)c1ccc(CNC(=O)[C@H](Cc2ccccc2)N(C)C(=O)CNC(=O)[C@@H](C)NC(=O)[C@@H](N)Cc2ccc(O)cc2)cc1)C(=O)N[C@@H](Cc1c[nH]c2ccccc12)C(=O)NCc1cc(C(F)(F)F)cc(C(F)(F)F)c1 | −7.92
Cc1cc(O)cc(C)c1C[C@H](N)C(=O)N[C@H](C)C(=O)NCC(=O)N(C)[C@@H](Cc1ccccc1)C(=O)N[C@@H](CO)C(=O)N1CCC[C@H]1C(=O)N[C@@H](CC(C)C)C(=O)N[C@@H](Cc1c[nH]c2ccccc12)C(=O)NCc1cc(C(F)(F)F)cc(C(F)(F)F)c1 [AKG132] (H-[Dmt][dA]G[NMeF]SPLW-{NH(3,5-(CF3)2-benzyl)}) | −9.03

Form field Log[IC50±] (μ), entry `Cc1cc(O)cc(C)c1C[C@H](N)C(=O)N[C@H](C)C(=O)NCC(=O)N[C@@H](Cc1ccc(Cl)cc1)C(=O)N1CCC[C@H]1C(=O)N[C@@H](CC(C)C)C(=O)N[C@@H](Cc1c[nH]c2ccccc12)C(=O)NCc1cc(C(F)(F)F)cc(C(F)(F)F)c1` : −8.33
